So I've got a bunch of compounds here, and I need their IC50 values.
TARGET OR SYSTEM: Transcription factor Sp1 (Homo sapiens, UniProt P08047)
Sequence (P08047 whole entry): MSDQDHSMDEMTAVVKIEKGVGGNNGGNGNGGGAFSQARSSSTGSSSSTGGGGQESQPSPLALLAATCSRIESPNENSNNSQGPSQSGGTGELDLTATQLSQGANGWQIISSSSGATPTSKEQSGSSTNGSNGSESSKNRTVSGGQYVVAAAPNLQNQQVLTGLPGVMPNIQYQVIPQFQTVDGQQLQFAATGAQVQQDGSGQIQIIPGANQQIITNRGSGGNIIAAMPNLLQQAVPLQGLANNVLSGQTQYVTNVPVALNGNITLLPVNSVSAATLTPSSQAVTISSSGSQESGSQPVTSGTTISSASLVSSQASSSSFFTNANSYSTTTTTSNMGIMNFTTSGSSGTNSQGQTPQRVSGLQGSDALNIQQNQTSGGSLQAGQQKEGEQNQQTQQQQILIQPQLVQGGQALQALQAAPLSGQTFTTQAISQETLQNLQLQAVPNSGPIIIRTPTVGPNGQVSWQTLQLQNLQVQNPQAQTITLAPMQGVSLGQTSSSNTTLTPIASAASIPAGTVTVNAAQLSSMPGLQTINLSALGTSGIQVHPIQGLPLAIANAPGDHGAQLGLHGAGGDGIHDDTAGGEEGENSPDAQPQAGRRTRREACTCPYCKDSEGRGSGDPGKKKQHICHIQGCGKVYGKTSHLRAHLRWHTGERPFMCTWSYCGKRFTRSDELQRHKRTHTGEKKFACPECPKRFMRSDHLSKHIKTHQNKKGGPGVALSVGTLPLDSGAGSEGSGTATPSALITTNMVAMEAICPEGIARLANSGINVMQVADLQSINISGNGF
PROCEDURE DETAILS: Inhibition of Sp1 (unknown origin) by luciferase reporter gene assay
Your answer is read as µM, so omit the unit and give the number.

Given the compound `O=C(N/N=C/c1ccccc1)c1ccc(F)cc1` , what is its reported IC50? 57.7

Given the compound C=C1C(=O)O[C@H]2[C@H]1CC/C(C)=C/CC[C@@]1(C)O[C@@H]21 [PARTHENOLIDE] , what is its reported IC50? 30.2
